# TESTED_SYSTEM: T1, DDX42 (Homo sapiens, UniProt Q86XP3 1-938)
# T1 sequence: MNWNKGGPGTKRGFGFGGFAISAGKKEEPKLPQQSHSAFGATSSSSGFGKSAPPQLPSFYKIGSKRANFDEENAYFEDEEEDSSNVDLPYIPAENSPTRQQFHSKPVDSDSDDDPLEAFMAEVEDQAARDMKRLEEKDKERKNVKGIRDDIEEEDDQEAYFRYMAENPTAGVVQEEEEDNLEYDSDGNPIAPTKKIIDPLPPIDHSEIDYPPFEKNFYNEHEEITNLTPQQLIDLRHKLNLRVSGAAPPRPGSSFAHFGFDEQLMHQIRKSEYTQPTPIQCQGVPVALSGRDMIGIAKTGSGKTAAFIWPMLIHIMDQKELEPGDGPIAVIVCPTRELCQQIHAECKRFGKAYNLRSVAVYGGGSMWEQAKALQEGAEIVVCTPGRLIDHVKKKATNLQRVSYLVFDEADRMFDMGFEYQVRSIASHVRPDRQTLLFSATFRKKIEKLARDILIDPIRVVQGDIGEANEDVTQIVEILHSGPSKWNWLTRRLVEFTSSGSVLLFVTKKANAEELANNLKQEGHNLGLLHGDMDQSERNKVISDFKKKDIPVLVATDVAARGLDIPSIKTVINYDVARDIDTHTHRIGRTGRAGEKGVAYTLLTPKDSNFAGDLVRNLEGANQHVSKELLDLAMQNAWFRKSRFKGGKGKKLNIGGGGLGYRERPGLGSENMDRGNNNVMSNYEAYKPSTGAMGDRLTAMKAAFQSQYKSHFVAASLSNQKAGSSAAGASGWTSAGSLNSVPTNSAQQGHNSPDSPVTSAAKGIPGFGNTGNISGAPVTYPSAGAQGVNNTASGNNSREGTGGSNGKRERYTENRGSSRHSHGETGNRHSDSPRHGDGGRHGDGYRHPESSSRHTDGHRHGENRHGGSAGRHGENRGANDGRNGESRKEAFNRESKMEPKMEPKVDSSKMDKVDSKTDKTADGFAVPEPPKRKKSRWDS
# PROTOCOL: ELISA; 100 mM KCl; apparent Kd; ELISA: 50 mM K2HPO4 pH 7.4, 100 mM KCl (or 100 mM LiCl), 3% BSA block, 0.1% Tween-20 washes; blocking at room temperature, DDX42 1 h; 50 nM biotin-oligo coating; oligos annealed in 10 mM Tris-HCl pH 7.4, 100 mM KCl
# RUN_CONDITIONS: protein: commercial; tags: N-terminal GST; label: 5' biotin; parallel G4 (CD verified)
ENDPOINT: pKd
Bear in mind: pKd is minus log10 of a mol/L concentration; give just that figure.

binder UGUGGGAGGGGCGGGUCUGGGUGC (structured_RNA) [NRAS G4 (rG4)] , pKd observed: 7.15
